# assayed_target: T1, FabF, E. coli elongating ketosynthase (E. coli, UniProt P0AAI5 2-413)
# T1 construct: ketosynthase FabF (3-oxoacyl-ACP synthase 2), E. coli; also called KS; source: E. coli BL21 (DE3), purified (Ni-IMAC, Superdex 75)
# T1 sequence: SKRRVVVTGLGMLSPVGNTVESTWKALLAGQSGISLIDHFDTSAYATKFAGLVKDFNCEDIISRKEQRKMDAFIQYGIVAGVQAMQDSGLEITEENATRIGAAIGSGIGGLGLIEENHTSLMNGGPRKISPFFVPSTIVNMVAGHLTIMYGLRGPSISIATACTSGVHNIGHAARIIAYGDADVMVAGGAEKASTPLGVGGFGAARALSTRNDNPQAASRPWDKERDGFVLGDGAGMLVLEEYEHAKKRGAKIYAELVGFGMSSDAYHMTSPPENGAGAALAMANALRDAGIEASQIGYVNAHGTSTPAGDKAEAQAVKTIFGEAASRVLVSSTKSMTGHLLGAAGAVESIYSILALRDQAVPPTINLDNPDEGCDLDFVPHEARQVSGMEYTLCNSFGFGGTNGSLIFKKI
# assay_info: NMR titration; 1H-15N HSQC of 15N, perdeuterated C8-AcpP titrated with unlabeled partner, at least five points; 37 °C; 10 mM potassium phosphate pH 7.4, 0.5 mM TCEP, 0.1% NaN3; TITAN 2D lineshape analysis, flexible stoichiometry model
# experimental_conditions: both partners purified
metric_name: pKd
pKd field: float, defined as -log10 of concentration (mol/L).

Check the records and state pKd for octanoyl-AcpP (C8-AcpP), E. coli acyl carrier protein (natural protein, octanoyl pantethenamide probe loaded (stable C8 acyl analog); uniformly 15N labeled and perdeuterated, acyl carrier protein AcpP, E. coli; PDB 2FAD is heptanoyl-AcpP, used for docking only; also called 15N-C8-AcpP; source: E. coli BL21 (DE3), M9 minimal media with 15N NH4Cl and D2O, purified; made apo with P. aeruginosa ACPH, then loaded with CoaA, CoaD, CoaE and Sfp) STIEERVKKIIGEQLGVKQEEVTNNASFVEDLGADSLDTVELVMALEEEFDTEIPDEEAEKITTVQAAIDYINGHQA
5.08

Hey, just so you know, these numbers are from paper PMC7966745.
